target: TGF-beta receptor type-1 (Homo sapiens); assay: Inhibition of human recombinant GST-tagged ALK5 expressed in Sf9 insect cells at 10 uM using casein as substrate incubated for 60 mins in presence of [33P]-ATP by radiometric assay relative to control
quantity_measured: inhibition

Study these solved cases before continuing.
substance_smiles	inhibition
Cc1cccc(-c2nn(CC(=O)Nc3cccc(C#N)c3)cc2-c2cc3cnccc3s2)n1	98 to 100%
Cc1cccc(-c2c(-c3ccc4nsnc4c3)cnn2CC(=O)Nc2cccc(C#N)c2)n1	52 to 98%
Cc1cccc(-c2nn(CC(=O)Nc3cccc(F)c3)cc2-c2cc3cnccc3s2)n1	98 to 100%
Cc1cccc(-c2nn(CC(=O)Nc3ccccc3)cc2-c2ccc3nsnc3c2)n1	98 to 99%
Cc1cccc(-c2nn(CC(=O)Nc3ccccc3F)cc2-c2ccc3nsnc3c2)n1	98 to 99%
Cc1cccc(-c2c(-c3cc4cnccc4s3)cnn2CC(=O)Nc2cccc(C#N)c2)n1	46 to 91%
Cc1cccc(-c2c(-c3cc4cnccc4s3)cnn2CC(=O)Nc2ccccc2F)n1	46 to 91%
Cc1cccc(-c2nn(CC(=O)Nc3cccc(F)c3)cc2-c2ccc3nsnc3c2)n1	98 to 99%

Data request, read-out inhibition, for `Cc1cccc(-c2c(-c3cc4cnccc4s3)cnn2CC(=O)Nc2ccccc2)n1`
46 to 91%

Data request, read-out inhibition, for `Cc1cccc(-c2c(-c3ccc4nsnc4c3)cnn2CC(=O)Nc2ccccc2F)n1`
52 to 98%

* * *

molecular target: Mitogen-activated protein kinase 14 (Homo sapiens); test: Inhibition of human recombinant untagged p38alpha expressed in Escherichia coli using ATF2 as substrate incubated for 60 mins in presence of [33P]-ATP by radiometric assay
pIC50: −log10 of the molar value.
quantity_measured: pIC50

Study these solved cases before continuing.
substance_smiles	assayed_system	observed_result
Cc1cccc(-c2nn(CC(=O)Nc3ccccc3)cc2-c2ccc3nsnc3c2)n1	Mitogen-activated protein kinase 14 (Homo sapiens)	< 5.00
Cc1cccc(-c2nn(CC(=O)Nc3ccccc3F)cc2-c2ccc3nsnc3c2)n1	Mitogen-activated protein kinase 14 (Homo sapiens)	< 5.00
Cc1cccc(-c2nn(CC(=O)Nc3cccc(F)c3)cc2-c2cc3cnccc3s2)n1	Mitogen-activated protein kinase 14 (Homo sapiens)	< 5.00
Cc1cccc(-c2nn(CC(=O)Nc3cccc(C#N)c3)cc2-c2cc3cnccc3s2)n1	Mitogen-activated protein kinase 14 (Homo sapiens)	< 5.00
Cc1cccc(-c2nn(CC(=O)Nc3cccc(F)c3)cc2-c2ccc3nsnc3c2)n1	Mitogen-activated protein kinase 14 (Homo sapiens)	< 5.00

Data request, read-out pIC50, for `Cc1cccc(-c2nn(CC(=O)Nc3ccccc3)cc2-c2cc3cnccc3s2)n1`
5.09

Data request, read-out pIC50, for `Cc1cccc(-c2nn(CC(=S)Nc3cccc(F)c3)cc2-c2ccc3nsnc3c2)n1`
5.15

Data request, read-out pIC50, for `Cc1cccc(-c2nn(CC(=S)Nc3ccccc3)cc2-c2ccc3nsnc3c2)n1`
5.24

Data request, read-out pIC50, for `Cc1cccc(-c2nn(CC(=O)Nc3cccc(C#N)c3)cc2-c2ccc3nsnc3c2)n1`
< 5.00

Data request, read-out pIC50, for `Cc1cccc(-c2nn(CC(=O)Nc3ccccc3F)cc2-c2cc3cnccc3s2)n1`
< 5.00

* * *

target: UniProt:P36897; experiment: Inhibition of human recombinant GST-tagged ALK5 expressed in Sf9 insect cells using casein as substrate incubated for 60 mins in presence of [33P]-ATP by radiometric assay
pIC50: −log10 of the molar value.
quantity_measured: pIC50

Study these solved cases before continuing.
substance_smiles	observed_result
Cc1cccc(-c2nn(CC(=S)Nc3ccccc3)cc2-c2ccc3nsnc3c2)n1	7.38
Cc1cccc(-c2nn(CC(=S)Nc3ccccc3F)cc2-c2ccc3nsnc3c2)n1	7.26
Cc1cccc(-c2nn(CC(=O)Nc3cccc(C#N)c3)cc2-c2ccc3nsnc3c2)n1	6.78
Cc1cccc(-c2nn(CC(=O)Nc3ccccc3)cc2-c2cc3cnccc3s2)n1	7.41
Cc1cccc(-c2nn(CC(=S)Nc3cccc(F)c3)cc2-c2cc3cnccc3s2)n1	6.90
Cc1cccc(-c2nn(CC(=S)Nc3cccc(C#N)c3)cc2-c2ccc3nsnc3c2)n1	6.94
Cc1cccc(-c2nn(CC(=O)Nc3ccccc3)cc2-c2ccc3nsnc3c2)n1	7.52
Cc1cccc(-c2nn(CC(=O)Nc3cccc(F)c3)cc2-c2ccc3nsnc3c2)n1	7.06

[P] Cc1cccc(-c2nn(CC(=O)Nc3cccc(F)c3)cc2-c2cc3cnccc3s2)n1
[Q] Cc1cccc(-c2nn(CC(=O)Nc3cccc(C#N)c3)cc2-c2cc3cnccc3s2)n1
[R] Cc1cccc(-c2nn(CC(=S)Nc3cccc(F)c3)cc2-c2ccc3nsnc3c2)n1
Task field, ranking: reported pIC50, descending order. API: response body holds the labels in the requested order.
R, P, Q

* * *

Listing: inhibition of selected compounds
biological target: TGF-beta receptor type-1 (Homo sapiens) (UniProt P36897); experiment: Inhibition of human recombinant GST-tagged ALK5 expressed in Sf9 insect cells at 10 uM using casein as substrate incubated for 60 mins in presence of [33P]-ATP by radiometric assay relative to control
Sequence (P36897 whole entry): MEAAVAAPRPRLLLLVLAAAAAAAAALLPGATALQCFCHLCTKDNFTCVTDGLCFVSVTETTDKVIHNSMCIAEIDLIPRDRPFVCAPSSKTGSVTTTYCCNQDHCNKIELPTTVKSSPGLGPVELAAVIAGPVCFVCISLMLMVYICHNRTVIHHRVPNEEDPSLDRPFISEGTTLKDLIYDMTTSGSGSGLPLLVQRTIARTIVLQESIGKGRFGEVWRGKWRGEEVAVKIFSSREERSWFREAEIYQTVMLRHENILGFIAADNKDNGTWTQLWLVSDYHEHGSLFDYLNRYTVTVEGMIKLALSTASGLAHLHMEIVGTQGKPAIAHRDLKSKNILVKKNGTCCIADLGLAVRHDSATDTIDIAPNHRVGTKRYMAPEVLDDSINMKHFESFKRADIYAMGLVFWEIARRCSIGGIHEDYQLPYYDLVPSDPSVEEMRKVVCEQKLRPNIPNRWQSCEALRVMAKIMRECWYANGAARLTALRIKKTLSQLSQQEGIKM

substance_smiles	inhibition
Cc1cccc(-c2c(-c3ccc4nsnc4c3)cnn2CC(=O)Nc2cccc(F)c2)n1	52 to 98%
Cc1cccc(-c2nn(CC(=O)Nc3ccccc3F)cc2-c2cc3cnccc3s2)n1	98 to 100%
Cc1cccc(-c2nn(CC(=O)Nc3cccc(C#N)c3)cc2-c2ccc3nsnc3c2)n1	98 to 99%
Cc1cccc(-c2c(-c3cc4cnccc4s3)cnn2CC(=O)Nc2cccc(F)c2)n1	46 to 91%

Okay, now this compound:
Data request, read-out inhibition, for `Cc1cccc(-c2c(-c3ccc4nsnc4c3)cnn2CC(=O)Nc2ccccc2)n1`
52 to 98%

* * *

biological target: Mitogen-activated protein kinase 14 (Homo sapiens, UniProt Q16539); experiment: Inhibition of human recombinant untagged p38alpha expressed in Escherichia coli using ATF2 as substrate incubated for 60 mins in presence of [33P]-ATP by radiometric assay
Sequence (Q16539 whole entry): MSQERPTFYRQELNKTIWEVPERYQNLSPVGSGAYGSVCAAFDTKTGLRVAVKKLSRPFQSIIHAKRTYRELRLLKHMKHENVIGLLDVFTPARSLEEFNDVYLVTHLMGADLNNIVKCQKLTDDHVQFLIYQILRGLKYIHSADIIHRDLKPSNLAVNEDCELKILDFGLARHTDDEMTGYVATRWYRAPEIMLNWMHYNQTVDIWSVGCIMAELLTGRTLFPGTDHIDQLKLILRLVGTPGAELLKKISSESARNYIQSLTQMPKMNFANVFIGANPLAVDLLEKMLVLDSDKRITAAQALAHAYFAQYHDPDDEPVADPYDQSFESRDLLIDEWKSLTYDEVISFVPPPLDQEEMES
quantity_measured: IC50 (µM)

[a] Cc1cccc(-c2nn(CC(=S)Nc3cccc(C#N)c3)cc2-c2cc3cnccc3s2)n1
[b] Cc1cccc(-c2nn(CC(=S)Nc3ccccc3F)cc2-c2ccc3nsnc3c2)n1
Higher IC50: a or b ? Label of pick, please.
a

* * *

target: TGF-beta receptor type-1 (Homo sapiens, UniProt P36897); assay: Inhibition of human recombinant GST-tagged ALK5 expressed in Sf9 insect cells using casein as substrate incubated for 60 mins in presence of [33P]-ATP by radiometric assay
quantity_measured: IC50 (nM)

[1] Cc1cccc(-c2nn(CC(=O)Nc3ccccc3F)cc2-c2cc3cnccc3s2)n1
[2] Cc1cccc(-c2nn(CC(=S)Nc3cccc(C#N)c3)cc2-c2cc3cnccc3s2)n1
[3] Cc1cccc(-c2nn(CC(=O)Nc3ccccc3F)cc2-c2ccc3nsnc3c2)n1
Please list the entries, largest IC50 first. API: response body holds the labels in the requested order.
1, 3, 2
(1: 312 nM, 3: 168 nM, 2: 78 nM)
